# system_under_test: eeAChE (Electrophorus electricus, UniProt O42275)
# Construct: purchased Sigma-Aldrich
# Sequence (O42275 24-633): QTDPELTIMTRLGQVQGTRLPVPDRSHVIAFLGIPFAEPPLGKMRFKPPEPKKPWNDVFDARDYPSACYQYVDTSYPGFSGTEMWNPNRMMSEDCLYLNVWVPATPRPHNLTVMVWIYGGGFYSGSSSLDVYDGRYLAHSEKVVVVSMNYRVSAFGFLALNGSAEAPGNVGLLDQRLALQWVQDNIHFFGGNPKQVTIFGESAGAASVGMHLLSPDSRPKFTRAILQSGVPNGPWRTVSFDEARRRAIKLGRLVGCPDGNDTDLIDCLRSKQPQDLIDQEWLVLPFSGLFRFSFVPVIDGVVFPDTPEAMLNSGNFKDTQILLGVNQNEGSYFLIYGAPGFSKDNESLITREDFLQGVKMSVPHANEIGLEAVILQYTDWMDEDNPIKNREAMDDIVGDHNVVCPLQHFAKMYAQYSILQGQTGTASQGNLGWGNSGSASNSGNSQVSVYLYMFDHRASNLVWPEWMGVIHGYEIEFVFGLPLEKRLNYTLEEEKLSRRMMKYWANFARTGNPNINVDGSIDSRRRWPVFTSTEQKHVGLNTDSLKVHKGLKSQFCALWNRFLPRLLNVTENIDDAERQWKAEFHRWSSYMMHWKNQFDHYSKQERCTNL
# protocol_details: Cholinesterase inhibition assay (modified Ellman's method), eeAChE
# Type: biochemical
# condition_notes: ratio BuChE/AChE
readout_type: SI AChE (AChE selectivity index = IC50(eqBuChE)/IC50(eeAChE))

Use these answered entries as a reference point.
compound	result
CC1=NN(c2ccc(C(=O)NCc3cc[n+](Cc4ccc(F)cc4)cc3)cc2)C(=O)C1 [Compound 5d]	>278
CC1=NN(c2ccc(C(=O)NCc3cc[n+](Cc4cccc(C)c4)cc3)cc2)C(=O)C1 [Compound 5k]	>15
CC1=NN(c2ccc(C(=O)NCc3cc[n+](Cc4ccc(C)cc4)cc3)cc2)C(=O)C1 [Compound 5l]	>11
CC1=NN(c2ccc(C(=O)NCc3cc[n+](Cc4ccc(Br)cc4)cc3)cc2)C(=O)C1 [Compound 5i]	>87

Here is the next item to consider.
Request the reported SI AChE (AChE selectivity index = IC50(eqBuChE)/IC50(eeAChE)) associated with CC1=NN(c2ccc(C(=O)NCc3cc[n+](Cc4ccccc4)cc3)cc2)C(=O)C1 [Compound 5a] >33
